Assay: qHTS Assay for Enhancers of SMN2 Splice Variant Expression; note: nearly all actives have a fitted effect of over 55% in size
Conditions: HEK293 SMN2-luciferase splicing reporter, luminescence, 30-36 h; series mostly up to 46.1 µM
Among all 210,000 compounds or so, about 5,900 (2.8%) were called active. Roughly 5% stayed inconclusive and do not appear here. Calls come from the whole dose curve; as a rule, active = well fitted activation curve with a large enough effect; inconclusive = small, poorly fitted or top-dose-only effect; inactive = no such curve, though single readings can be large or run the other way. The sample holds actives, similar compounds and a random draw of the others, so the mix is not that of the screen.
I would appreciate it if you answered using one of these outcomes: active, inactive

For orientation, consider the following solved cases.
>>> print(df.to_string())
                                   compound     group
0  O=c1cc(COc2cccc(C(F)(F)F)c2)nc2sc3c(n12)CCCC3  inactive
1      CC(C)(C)OC(=O)N/N=C/c1ccc(C(=O)O)cc1  inactive
2  Cc1ccc(-n2nc(C)c(/C=N/NC(=O)c3cccs3)c2Cl)cc1  inactive

Exam item: Outcome? `CC(=O)Nc1ccc(/C=N/NC(=O)c2cccs2)cc1`
Marked response: active

###

Test: qHTS Assay for Enhancers of SMN2 Splice Variant Expression; note: nearly all actives have a fitted effect of over 55% in size
Conditions: HEK293 SMN2-luciferase splicing reporter, luminescence, 30-36 h; series mostly up to 46.1 µM
Hit rate of the full screen: of about 210,000 compounds, about 5,900 (2.8%) were called active. Not shown: some 5% with an inconclusive outcome. The call rests on the fitted dose curve; in most records, active means well fitted activation curve with a large enough effect; inconclusive means small, poorly fitted or top-dose-only effect; inactive means no such curve, though single readings can be large or run the other way. Shown is part of a subset that was picked to be rich in actives.
I would appreciate it if you answered using one of these outcomes: active, inactive

For orientation, consider the following solved cases.
                                   compound     group
0                  O=C(NC1CCCC1)c1ccc(Br)s1  inactive
1  CC1=C(C(=O)OCC2CCCCC2)C(c2c(F)cccc2Cl)CC(=O)N1 (configuration not stated)  inactive
2    O=C(Nc1nncs1)c1ccccc1NS(=O)(=O)c1cccs1  inactive
3  Cc1nc2nc(SCC(=O)N(Cc3ccccc3)C(C)C)nn2c(C)c1Cc1ccccc1Cl  inactive

Exam item: Outcome? `O=C(Nc1ccc2c(c1)OCCO2)c1cnccn1`
Marked response: active

Exam item: Outcome? `COc1ccc(C(=O)Nc2nncs2)c(OC)c1`
Marked response: active

Exam item: Outcome? Cc1n[nH]c(C)c1S(=O)(=O)N1CCCC(C(=O)Nc2ccc(Br)cc2)C1 (configuration not stated)
Marked response: inactive

Exam item: Outcome? `CSCc1ccc(C(=O)Nc2cc(C)cc(C)c2)cc1`
Marked response: active

Exam item: Outcome? `COc1cccc(OC)c1C(=O)Nc1nnc(C(C)C)s1`
Marked response: inactive

Exam item: Outcome? `O=C(NCN1CCN(CCO)CC1)c1cnccn1`
Marked response: inactive

Exam item: Outcome? `CCN1CCN(c2ccc(NC(=O)c3cnccn3)cc2)CC1`
Marked response: active

Exam item: Outcome? `O=C(CCN1C(=O)c2ccncc2C1=O)Nc1ccc2c(c1)OCCO2`
Marked response: inactive

###

Assay: qHTS Assay for Enhancers of SMN2 Splice Variant Expression; note: nearly all actives have a fitted effect of over 55% in size; note: potency is the fitted concentration of half-maximal effect
Conditions: HEK293 SMN2-luciferase splicing reporter, luminescence, 30-36 h; series mostly up to 46.1 µM
Hit rate of the full screen: of about 210,000 compounds, about 5,900 (2.8%) were called active. Another 5% or so got no clear call; they are omitted. Shown is part of a subset that was picked to be rich in actives.
EXPERIMENTAL READOUT: Potency

                                test_smiles        data_value
0  CCc1cc2c(cc3c(=O)n(CC(=O)NCCc4ccc(OC)c(OC)c4)ncn32)s1          inactive
1                  CCc1nnc(NC(=O)c2cccs2)s1          inactive
2  CCOC(=O)c1nnn(CC(=O)NC(=O)Nc2ccccc2F)c1C(=O)OCC          inactive
3      CCOc1cccc(C(=O)Nc2nnc(-c3cccs3)s2)c1  12.6 µM (active)
4  Cc1ccc(S(=O)(=O)N(Cc2nc(-c3ccc(Cl)cc3)no2)C2CCCCC2)cc1          inactive

Query compound follows.
Exam item: What value of measured Potency is listed for `CS(=O)(=O)c1ccc2nc(NC(=O)C3CCCCC3)sc2c1` ?
Marked response: inactive

###

Assay: qHTS Assay for Enhancers of SMN2 Splice Variant Expression; note: nearly all actives have a fitted effect of over 55% in size
Conditions: HEK293 SMN2-luciferase splicing reporter, luminescence, 30-36 h; series mostly up to 46.1 µM
The campaign covered roughly 210,000 compounds. About 5,900 (2.8%) were called active. Inconclusive results (about 5%) are left out. The call rests on the fitted dose curve; in most records, active means well fitted activation curve with a large enough effect; inconclusive means small, poorly fitted or top-dose-only effect; inactive means no such curve, though single readings can be large or run the other way. The sample as a whole holds a higher share of actives than the screen did.
I would appreciate it if you answered using one of these outcomes: Yes = active, No = inactive

>>> df
                                   compound  group
0  COc1ccc(-c2cc(NCc3ccc(F)cc3)n3cnnc3n2)cc1     No
1       CSc1ccc(/C=N/NC(=O)c2cccc(Cl)c2)cc1    Yes
2  CCOC(=O)c1ccccc1NC(=O)CCc1c(C)nc2c(c1C)c(=O)n(C)c(=O)n2C     No
3     O=C(Cn1c(-c2cncs2)nc2ccccc21)NC1CCCC1     No
4           O=C(O)C1CCN(C(=O)OCc2ccccc2)CC1    Yes
5  Cc1noc(NS(=O)(=O)c2ccc(N/C=C/C(=O)c3ccccc3)cc2)c1C     No

Now let's try a different one.
Exam item: Outcome? `COc1cc2[nH]c(=O)n(Cc3ccc(C(=O)NCc4ccc(C)cc4)cc3)c(=O)c2cc1OC`
Marked response: No

###

Assay: qHTS Assay for Enhancers of SMN2 Splice Variant Expression; note: nearly all actives have a fitted effect of over 55% in size; note: potency is the fitted concentration of half-maximal effect
Settings: HEK293 SMN2-luciferase splicing reporter, luminescence, 30-36 h; series mostly up to 46.1 µM
Screen size: about 210,000 compounds; about 5,900 (2.8%) were called active. Inconclusive results (about 5%) are left out. For the sample, actives were picked, then their nearest neighbours and some compounds at random.
EXPERIMENTAL READOUT: Potency

Field: example entries. Status: answers known.
>>> df
                                test_smiles        data_value
0  COC(=O)c1cc(NC(=O)c2sc3ccccc3c2Cl)cc(C(=O)OC)c1          inactive
1  Cc1ccc(F)cc1NC(=O)CCSc1nc(-c2ccco2)cc(C(F)(F)F)n1          inactive
2              O=C(Nc1ccon1)c1sc2ccccc2c1Cl  17.8 µM (active)
3  Cc1cc(C)cc(OCC(=O)Nc2nc(-c3ccc(F)cc3)ns2)c1          inactive
4  Cc1oc(-c2ccccc2F)nc1CN1CCC(C(=O)NCCc2ccc(Cl)cc2)CC1          inactive

Query compound follows.
Exam item: What value of measured Potency is listed for `COc1cc2c(=O)c(S(=O)(=O)c3ccc(C(C)C)cc3)cn(Cc3ccccc3C)c2cc1OC` ?
Marked response: inactive

###

Assay: qHTS Assay for Enhancers of SMN2 Splice Variant Expression; note: nearly all actives have a fitted effect of over 55% in size
Conditions: HEK293 SMN2-luciferase splicing reporter, luminescence, 30-36 h; series mostly up to 46.1 µM
About 5,900 (2.8%) of roughly 210,000 compounds were called active. Not shown: some 5% with an inconclusive outcome. The entries come from a sample that favours actives as a whole.
EXPERIMENTAL READOUT: outcome

Field: example entries. Status: answers known.
>>> print(df.to_string())
                                test_smiles  data_value
0      Cc1nn(CC(=O)O)c(=O)c2cc3cc(F)ccc3n12    inactive
1  N/C(=N\OC(=O)c1cc(-c2ccccc2)nc2ccccc12)c1ccncc1    inactive
2  Cc1cccc(N2CCN(C(=O)c3ccc4c(c3)CCN4S(=O)(=O)c3ccccc3)CC2)c1C    inactive
3  COc1ccc(S(=O)(=O)N(C)C)cc1NC(=O)CSc1ncccn1    inactive

Exam item: What value of measured outcome is listed for `Cc1ccc(-c2nc(CS(=O)(=O)CC(=O)NCc3ccccc3Cl)c(C)o2)cc1` ?
Marked response: inactive

Exam item: What value of measured outcome is listed for `Cc1cccc(C(=O)O)c1` ?
Marked response: inactive

###

Experiment: qHTS Assay for Enhancers of SMN2 Splice Variant Expression; note: nearly all actives have a fitted effect of over 55% in size
Settings: HEK293 SMN2-luciferase splicing reporter, luminescence, 30-36 h; series mostly up to 46.1 µM
Among all 210,000 compounds or so, about 5,900 (2.8%) were called active. About 5% were inconclusive and are not listed. Calls follow the shape of the dose curve; as a rule, active = well fitted activation curve with a large enough effect; inconclusive = small, poorly fitted or top-dose-only effect; inactive = no such curve, though single readings can be large or run the other way. Only a selection was taken, and actives are over-represented in it overall.
I would appreciate it if you answered using one of these outcomes: yes (1) = active, no (0) = inactive

For orientation, consider the following solved cases.
                                   molecule    group
0  CC(C)C(=O)Nc1cccc(NC(=O)c2ccc([N+](=O)[O-])cc2Cl)c1   no (0)
1  CCOC(=O)c1ccc(NC(=O)Cn2c(=O)n(-c3ccc(C)cc3)c(=O)c3c2cnn3C)cc1   no (0)
2  CCCC12CN3CC(CCC)(CN(C1)C3c1c[nH]c3ccc(OC)cc13)C2=O (stereo unspecified)   no (0)
3  O=C(Nc1ccc(Br)cn1)c1ccc([N+](=O)[O-])cc1Cl  yes (1)

Exam item: Outcome? `Nc1ccccc1N`
Marked response: yes (1)

Exam item: Outcome? `C/C(=N\Nc1ncc(Cl)cc1Cl)c1cccs1`
Marked response: yes (1)

Exam item: Outcome? `Cc1cc(NC(=O)c2ccc(-c3ccc(Cl)cc3)o2)cc(-c2nc3ncccc3o2)c1O`
Marked response: no (0)

Exam item: Outcome? `Cc1ccc(-c2nc3ccccn3c2Nc2c(C)cccc2C)o1`
Marked response: no (0)

Exam item: Outcome? CCOC(=O)c1c(C)[nH]c(C2=NNC(=NC(C)COC)SC2)c1C (stereo unspecified)
Marked response: yes (1)

Exam item: Outcome? `COc1ccccc1-c1nnc(C2CCN(C(=O)c3ccc(Cl)cc3)CC2)o1`
Marked response: no (0)

Exam item: Outcome? `O=[N+]([O-])c1cc(Br)c(O)c(/C=N/Nc2nc3ccccc3s2)c1`
Marked response: no (0)

Sourced from PubChem BioAssay AID1458
